# System: HL-60
# experiment.notes: Selectivity index, ratio of CC50 for normal cells to CC50 for human HL60 cells
# Type: functional

smi: CCOP(=O)(OCC)N1C/C(=C\c2ccc(OC)cc2)C(=O)/C(=C/c2ccc(OC)cc2)C1
Selectivity Index: 25
//
smi: CCOP(=O)(OCC)N1C/C(=C\c2ccc([N+](=O)[O-])cc2)C(=O)/C(=C/c2ccc([N+](=O)[O-])cc2)C1
Selectivity Index: 17
//
smi: O=C1/C(=C/c2ccc([N+](=O)[O-])cc2)CN(P(=O)(O)O)C/C1=C\c1ccc([N+](=O)[O-])cc1
Selectivity Index: 21
//
smi: CCOP(=O)(OCC)N1C/C(=C\c2ccc(Cl)cc2)C(=O)/C(=C/c2ccc(Cl)cc2)C1
Selectivity Index: 6.7
//
smi: CCOP(=O)(OCC)N1C/C(=C\c2cccc([N+](=O)[O-])c2)C(=O)/C(=C/c2cccc([N+](=O)[O-])c2)C1
Selectivity Index: 54
//
smi: O=C1/C(=C/c2ccccc2[N+](=O)[O-])CN(P(=O)(O)O)C/C1=C\c1ccccc1[N+](=O)[O-]
Selectivity Index: 30
//
smi: COc1cc(/C=C2\CN(P(=O)(O)O)C/C(=C\c3cc(OC)c(OC)c(OC)c3)C2=O)cc(OC)c1OC
Selectivity Index: 12
//
smi: COc1ccc(/C=C2\CN(P(=O)(O)O)C/C(=C\c3ccc(OC)cc3)C2=O)cc1
Selectivity Index: 12
